Molecular target: Gonadotropin-releasing hormone receptor (Homo sapiens, UniProt P30968)
pKi: −log10 of the molar value.
Everything with pKi lower than 7 is 0; everything else, including exactly 7, is 1.

COc1cccc(-c2c(C)n(Cc3c(F)cccc3F)c(=O)n(C[C@H](C)N)c2=O)c1	0
COc1cccc(-c2c(C)n(Cc3c(F)cccc3F)c(=O)n(C[C@@H](C)N)c2=O)c1	0

In: Hello, I need to know if COc1cccc(-c2c(C)n(Cc3c(F)cccc3F)c(=O)n(CC(C)N(C)CCCOCC(C)C)c2=O)c1 (configuration not stated) has measured pKi not below 7. Thanks!
Out: 0

In: Would you say COc1cccc(-c2c(C)n(Cc3c(F)cccc3F)c(=O)n(CC(C)N(C)CCc3ccccn3)c2=O)c1 (configuration not stated) shows pKi at minimum 7?
Out: 1

----------
Could you please report measured Ki for the items listed next?
Protein target, amino acids: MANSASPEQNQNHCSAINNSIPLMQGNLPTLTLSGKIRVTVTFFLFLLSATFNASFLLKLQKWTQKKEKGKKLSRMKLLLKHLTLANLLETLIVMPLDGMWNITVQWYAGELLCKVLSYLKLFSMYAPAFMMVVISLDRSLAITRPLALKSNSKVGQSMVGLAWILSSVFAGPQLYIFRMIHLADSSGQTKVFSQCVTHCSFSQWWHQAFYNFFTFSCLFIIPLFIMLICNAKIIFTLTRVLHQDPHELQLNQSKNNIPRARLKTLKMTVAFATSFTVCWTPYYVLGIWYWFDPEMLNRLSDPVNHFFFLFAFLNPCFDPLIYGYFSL
Give bare numbers, in nM.

// worked examples, Ki included
COc1cccc(-c2c(C)n(Cc3c(F)cccc3F)c(=O)n(CCN(C)Cc3ccccn3)c2=O)c1	96
COc1cccc(-c2c(C)n(Cc3c(F)cccc3F)c(=O)n(C[C@@H](C)NCc3ccccc3)c2=O)c1	130

Kindly consider the entry below.
In: Please report the recorded Ki for COc1cccc(-c2c(C)n(Cc3c(F)cccc3F)c(=O)n(C[C@H](C)NCc3ccccc3)c2=O)c1 .
Out: 140
